src = PubChem BioAssay AID1963865

System: KRAS PDC multicell spheroid viability
Experiment: Anticancer human tumor 825966-067-R-J1-PDC patient-derived colon carcinoma cell line growth inhibition [KRAS2]
Details: second compound 0.1 µM; first compound 0.0316 µM; stronger effect = lower value
Overview of reported viability, T/C across a group of compounds:

compound	viability, T/C, %
COc1cc(Nc2ncc3c(n2)-c2ccc(Cl)cc2C(c2c(F)cccc2OC)=NC3)ccc1C(=O)O + CC1OCC2(CCN(c3cnc(Sc4ccnc(N)c4Cl)c(N)n3)CC2)C1N	132
CCNC(=O)CC1N=C(c2ccc(Cl)cc2)c2cc(OC)ccc2-n2c(C)nnc21 (stereo not given) + C=CC(=O)N1CCN(c2nc(=O)n(-c3c(C)ccnc3C(C)C)c3nc(-c4c(O)cccc4F)c(F)cc23)C(C)C1	81
CC1(C)CCC(CN2CCN(c3ccc(C(=O)NS(=O)(=O)c4ccc(NCC5CCOCC5)c([N+](=O)[O-])c4)c(Oc4cnc5[nH]ccc5c4)c3)CC2)=C(c2ccc(Cl)cc2)C1 + C=CC(=O)N1CCN(c2nc(=O)n(-c3c(C)ccnc3C(C)C)c3nc(-c4c(O)cccc4F)c(F)cc23)C(C)C1	90.5
CN(C)C/C=C/C(=O)Nc1cc2c(Nc3ccc(F)c(Cl)c3)ncnc2cc1O[C@H]1CCOC1 + C=CC(=O)N1CCN(c2nc(=O)n(-c3c(C)ccnc3C(C)C)c3nc(-c4c(O)cccc4F)c(F)cc23)C(C)C1	94.5
Cn1nccc1Nc1nccc(-c2cc3c(s2)C(C)(C)N(CCN2CCOCC2)C3=O)n1 + CNCc1ccccc1-c1csc(C(C)Nc2nc(C)nc3cc(OC)c(OC)cc23)c1	108
CC(=O)OC12COC1CC(O)C1(C)C(=O)C(O)C3=C(C)C(OC(=O)C(O)C(NC(=O)OC(C)(C)C)c4ccccc4)CC(O)(C(OC(=O)c4ccccc4)C21)C3(C)C (stereo not given) + COc1cc2nc(C)nc(NC(C)c3cc(N)cc(C(F)(F)F)c3)c2cc1OC1CCOC1	24.6
COC(=O)c1ccc2c(C(=Nc3ccc(N(C)C(=O)CN4CCN(C)CC4)cc3)c3ccccc3)c(O)[nH]c2c1 + CNCc1ccccc1-c1csc(C(C)Nc2nc(C)nc3cc(OC)c(OC)cc23)c1	84.2
CC(C)n1nc(-c2ccc3oc(N)nc3c2)c2c(N)ncnc21 + CNCc1ccccc1-c1csc(C(C)Nc2nc(C)nc3cc(OC)c(OC)cc23)c1	128
Cn1nccc1Nc1nccc(-c2cc3c(s2)C(C)(C)N(CCN2CCOCC2)C3=O)n1 + C=CC(=O)N1CCN(c2nc(OCC3CCCN3C)nc3c2CCN(c2cccc4cccc(C)c24)C3)CC1CC#N	84
CC(=O)Nc1cccc(-n2c(=O)n(C3CC3)c(=O)c3c(Nc4ccc(I)cc4F)n(C)c(=O)c(C)c32)c1 + CNCc1ccccc1-c1csc(C(C)Nc2nc(C)nc3cc(OC)c(OC)cc23)c1	35.7

* * *

Test system: KRAS PDC multicell spheroid viability
Experiment: Anticancer human tumor 825966-067-R-J1-PDC cell line growth inhibition [KRAS2];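 further: spheroids exposed to compounds for 7 days; 100% = DMSO vehicle control viability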
Details: second compound 10 µM; first compound 0.316 µM; stronger effect = lower value
Param label: returns Condition met when viability, T/C < 80%, returns Condition not met otherwise, including exact equality.

compound	assay_system	class
CC1OCC2(CCN(c3cnc(Sc4ccnc(N)c4Cl)c(N)n3)CC2)C1N (stereo not given) + C=CC(=O)N1CCN(c2nc(=O)n(-c3c(C)ccnc3C(C)C)c3nc(-c4c(O)cccc4F)c(F)cc23)C(C)C1	KRAS PDC multicell spheroid viability	Condition not met
CC(=O)OC12COC1CC(O)C1(C)C(=O)C(O)C3=C(C)C(OC(=O)C(O)C(NC(=O)OC(C)(C)C)c4ccccc4)CC(O)(C(OC(=O)c4ccccc4)C21)C3(C)C (stereo not given) + C=CC(=O)N1CCN(c2nc(=O)n(-c3c(C)ccnc3C(C)C)c3nc(-c4c(O)cccc4F)c(F)cc23)C(C)C1	KRAS PDC multicell spheroid viability	Condition met
COc1cc2nccc(Oc3ccc(NC(=O)C4(C(=O)Nc5ccc(F)cc5)CC4)cc3)c2cc1OC + CNCc1ccccc1-c1csc(C(C)Nc2nc(C)nc3cc(OC)c(OC)cc23)c1	KRAS PDC multicell spheroid viability	Condition met
COc1cc(Nc2ncc3c(n2)-c2ccc(Cl)cc2C(c2c(F)cccc2OC)=NC3)ccc1C(=O)O + COc1cc2nc(C)nc(NC(C)c3cc(N)cc(C(F)(F)F)c3)c2cc1OC1CCOC1	KRAS PDC multicell spheroid viability	Condition met
COc1cc2nccc(Oc3ccc(NC(=O)C4(C(=O)Nc5ccc(F)cc5)CC4)cc3)c2cc1OC + COc1cc2nc(C)nc(NC(C)c3cc(N)cc(C(F)(F)F)c3)c2cc1OC1CCOC1	KRAS PDC multicell spheroid viability	Condition met
O=C(c1cc(Cc2n[nH]c(=O)c3ccccc23)ccc1F)N1CCN(C(=O)C2CC2)CC1 + CC1OCC2(CCN(c3cnc(Sc4ccnc(N)c4Cl)c(N)n3)CC2)C1N	KRAS PDC multicell spheroid viability	Condition met
CCN1CCN(Cc2ccc(Nc3ncc(F)c(-c4cc(F)c5nc(C)n(C(C)C)c5c4)n3)nc2)CC1 + C=CC(=O)N1CCN(c2nc(=O)n(-c3c(C)ccnc3C(C)C)c3nc(-c4c(O)cccc4F)c(F)cc23)C(C)C1	KRAS PDC multicell spheroid viability	Condition not met
O=C(c1cc(Cc2n[nH]c(=O)c3ccccc23)ccc1F)N1CCN(C(=O)C2CC2)CC1 + COc1cc2nc(C)nc(NC(C)c3cc(N)cc(C(F)(F)F)c3)c2cc1OC1CCOC1	KRAS PDC multicell spheroid viability	Condition not met
CCN1CCN(Cc2ccc(Nc3ncc(F)c(-c4cc(F)c5nc(C)n(C(C)C)c5c4)n3)nc2)CC1 + CC1OCC2(CCN(c3cnc(Sc4ccnc(N)c4Cl)c(N)n3)CC2)C1N	KRAS PDC multicell spheroid viability	Condition met
COc1cc(Nc2ncc3c(n2)-c2ccc(Cl)cc2C(c2c(F)cccc2OC)=NC3)ccc1C(=O)O + CNCc1ccccc1-c1csc(C(C)Nc2nc(C)nc3cc(OC)c(OC)cc23)c1	KRAS PDC multicell spheroid viability	Condition met
